molecular target: Mouse PPARα LBD fusion protein (Mus musculus); assay: Transcription activation potential, GAL4 luciferase reporter in C3A cells; type: cell-based; details: 100 μM, Table 21a
Sequence (P23204 239-466): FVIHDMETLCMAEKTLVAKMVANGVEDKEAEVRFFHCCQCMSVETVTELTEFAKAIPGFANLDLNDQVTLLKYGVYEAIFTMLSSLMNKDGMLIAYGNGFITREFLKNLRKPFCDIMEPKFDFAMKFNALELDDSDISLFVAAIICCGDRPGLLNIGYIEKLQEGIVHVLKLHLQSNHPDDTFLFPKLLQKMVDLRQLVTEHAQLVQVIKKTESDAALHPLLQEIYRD
Class true (1): transcription activation potential (luciferase) ± standard deviation at least 40000 RLU. Class false (0): transcription activation potential (luciferase) ± standard deviation below 40000 RLU.

| compound | tgt | qualitativeLabel |
| --- | --- | --- |
| Cc1cccc(Nc2cc(Cl)nc(SCC(=O)O)n2)c1C [Wy, reference compound] | Mouse PPARα LBD fusion protein (Mus musculus) | true (1) |

Could you tell me if the measured transcription activation potential (luciferase) ± standard deviation of Cc1cccc(C)c1COc1cccc(C(=O)CCC(=O)O)c1 [Compound BI] reaches 40000 RLU or more?
false (0)

Is the recorded value of transcription activation potential (luciferase) ± standard deviation equal to or greater than 40000 RLU for this compound? CC(C(=O)O)c1cccc(Oc2ccccc2)c1 (centres unmarked) [fenoprofen, reference compound]
false (0)

Please indicate if the recorded transcription activation potential (luciferase) ± standard deviation for Cc1cccc(C)c1COc1cccc(C(=O)O)c1 [Compound CG, 3-(2,6-Dimethylbenzyloxy)benzoic acid] meets or exceeds 40000 RLU.
false (0)
